measured-on: DRB1*1501 (Homo sapiens, UniProt P01903+P01911)
experimental-details: biochemical
Format: binding
Exercise: for every item that follows, state its recorded IC50.

Some solved cases for reference:
Ask | Retrieve IC50 on DRB1*1501 (Homo sapiens, UniProt P01903+P01911); query CC(C)C[C@H](NC(=O)[C@H](CCC(N)=O)NC(=O)[C@H](C)NC(=O)[C@H](CC(N)=O)NC(=O)[C@H](CCCCN)NC(=O)[C@@H](NC(=O)[C@H](CCCCN)NC(=O)[C@H](CC(N)=O)NC(=O)CN)C(C)C)C(=O)N[C@@H](C)C(=O)NCC(=O)N[C@@H](C)C(=O)N[C@@H](CCCCN)C(=O)NCC(=O)N[C@H](C(=O)O)C(C)C [Peptide 68.0097]
Reply | > 20 µM

Ask | Lab note: record IC50 of CC[C@H](C)[C@H](NC(=O)[C@H](CCCCN)NC(=O)[C@H](CCSC)NC(=O)[C@H](CC(=O)O)NC(=O)[C@H](CCCNC(=N)N)NC(=O)[C@H](CCC(=O)O)NC(=O)[C@H](CC(C)C)NC(=O)[C@H](CCCCN)NC(=O)[C@H](Cc1ccccc1)NC(=O)[C@@H](N)Cc1ccccc1)C(=O)N[C@@H](CC(N)=O)C(=O)N[C@@H](CS)C(=O)N[C@@H](CO)C(=O)NCC(=O)N[C@@H](CCCCN)C(=O)O [Peptide 68.0168] tested on DRB1*1501 (Homo sapiens, UniProt P01903+P01911).
Reply | > 20 µM

Query molecule follows.
Ask | State the measured IC50 (DRB1*1501 (Homo sapiens, UniProt P01903+P01911)) of CSCC[C@H](NC(=O)[C@H](CS)NC(=O)[C@H](CC(N)=O)NC(=O)[C@H](CC(=O)O)NC(=O)[C@H](CCCCN)NC(=O)[C@H](CC(N)=O)NC(=O)CN)C(=O)N[C@H](C(=O)N[C@@H](Cc1ccc(O)cc1)C(=O)N[C@H](C(=O)N[C@@H](C)C(=O)N[C@@H](Cc1c[nH]c2ccccc12)C(=O)N[C@@H](CC(=O)O)C(=O)N[C@@H](CO)C(=O)N[C@H](C(=O)O)C(C)C)C(C)C)[C@@H](C)O [Peptide 1601.09]
Reply | 0.461 µM
